pIC50 values by entry
- target of assay: human TLR7 (Homo sapiens (Human))
- Sequence (Q9NYK1 27-1049): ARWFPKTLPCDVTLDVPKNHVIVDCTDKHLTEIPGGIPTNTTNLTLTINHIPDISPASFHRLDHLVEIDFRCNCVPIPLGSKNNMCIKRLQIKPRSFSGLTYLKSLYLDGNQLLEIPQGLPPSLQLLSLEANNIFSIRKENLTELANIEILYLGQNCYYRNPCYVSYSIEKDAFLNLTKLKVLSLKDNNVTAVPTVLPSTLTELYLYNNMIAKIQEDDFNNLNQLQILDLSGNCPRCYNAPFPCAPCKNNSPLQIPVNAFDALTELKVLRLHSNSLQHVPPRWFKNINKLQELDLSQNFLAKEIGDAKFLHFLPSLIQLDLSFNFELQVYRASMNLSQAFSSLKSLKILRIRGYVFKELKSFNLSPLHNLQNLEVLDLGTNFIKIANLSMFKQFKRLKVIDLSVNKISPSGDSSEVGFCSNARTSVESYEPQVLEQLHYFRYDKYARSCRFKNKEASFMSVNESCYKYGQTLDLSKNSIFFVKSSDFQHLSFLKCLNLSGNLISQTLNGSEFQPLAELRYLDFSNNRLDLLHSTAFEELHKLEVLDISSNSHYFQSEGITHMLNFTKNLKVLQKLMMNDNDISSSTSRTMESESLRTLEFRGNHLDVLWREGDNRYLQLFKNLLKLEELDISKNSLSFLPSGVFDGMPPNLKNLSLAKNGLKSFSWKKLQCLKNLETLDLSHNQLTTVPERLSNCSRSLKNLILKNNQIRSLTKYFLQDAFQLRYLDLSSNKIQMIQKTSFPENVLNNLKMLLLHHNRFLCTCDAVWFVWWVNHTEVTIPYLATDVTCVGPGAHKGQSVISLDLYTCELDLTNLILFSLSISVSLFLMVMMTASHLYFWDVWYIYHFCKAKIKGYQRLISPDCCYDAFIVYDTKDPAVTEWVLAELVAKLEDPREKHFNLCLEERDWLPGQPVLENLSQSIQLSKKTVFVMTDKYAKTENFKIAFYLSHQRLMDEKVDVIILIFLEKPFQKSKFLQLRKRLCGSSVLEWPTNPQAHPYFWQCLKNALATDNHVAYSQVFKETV
- measurement protocol: TLR7 inhibition reporter assay (HEK-Blue SEAP)
- assay setup: HEK-Blue cells overexpressing human TLR7, gardiquimod 7.5 μM stimulation
// returns pIC50 (minus log10 of molar concentration), number only

Consider the worked cases shown below.
| compound | target of assay | pIC50 |
| --- | --- | --- |
| Cc1cc(-c2[nH]c3cnc(C4CCN(CC5(C)COC5)CC4)c(F)c3c2C(C)C)cn2ncnc12 | human TLR7 (Homo sapiens (Human)) | 8.49 |
| COc1cc(-c2[nH]c3cnc(C4CCC(N(C)C(C)C)CC4)c(F)c3c2C(C)C)cn2ncnc12 (centres unmarked) [Example 227] | human TLR7 (Homo sapiens (Human)) | 8.72 |
| Cc1cc(-c2[nH]c3cnc(C4CCN(CC(N)=O)CC4)c(F)c3c2C(C)C)cc(C)n1 | human TLR7 (Homo sapiens (Human)) | 8.30 |
| COc1cc(-c2[nH]c3cnc(N4CC5(C4)CN(C(C)C)C5)c(F)c3c2C(C)C)cn2ncnc12 | human TLR7 (Homo sapiens (Human)) | 8.09 |
| COc1cc(-c2[nH]c3cnc(N4CCN(CC#N)CC4)c(F)c3c2C(C)C)cn2ncnc12 | human TLR7 (Homo sapiens (Human)) | 9.38 |
| Cc1c(-c2[nH]c3cnc(C4CCN(CC(N)=O)CC4)c(F)c3c2C(C)C)cn2ncnc2c1C | human TLR7 (Homo sapiens (Human)) | 8.46 |
| COc1cc(-c2[nH]c3cnc(N4CCC(NCC(=O)N(C)C)CC4)cc3c2C(C)C)cn2ncnc12 | human TLR7 (Homo sapiens (Human)) | 8.27 |

# lookup: COc1cc(-c2[nH]c3cnc(C4CCN(C5COC5)CC4)cc3c2C(C)C)cn2ncnc12 on human TLR7 (Homo sapiens (Human)), pIC50 = 8.41

###

pIC50 values by entry
- target of assay: UniProt:Q9NR97
- Sequence (Q9NR97 27-1041): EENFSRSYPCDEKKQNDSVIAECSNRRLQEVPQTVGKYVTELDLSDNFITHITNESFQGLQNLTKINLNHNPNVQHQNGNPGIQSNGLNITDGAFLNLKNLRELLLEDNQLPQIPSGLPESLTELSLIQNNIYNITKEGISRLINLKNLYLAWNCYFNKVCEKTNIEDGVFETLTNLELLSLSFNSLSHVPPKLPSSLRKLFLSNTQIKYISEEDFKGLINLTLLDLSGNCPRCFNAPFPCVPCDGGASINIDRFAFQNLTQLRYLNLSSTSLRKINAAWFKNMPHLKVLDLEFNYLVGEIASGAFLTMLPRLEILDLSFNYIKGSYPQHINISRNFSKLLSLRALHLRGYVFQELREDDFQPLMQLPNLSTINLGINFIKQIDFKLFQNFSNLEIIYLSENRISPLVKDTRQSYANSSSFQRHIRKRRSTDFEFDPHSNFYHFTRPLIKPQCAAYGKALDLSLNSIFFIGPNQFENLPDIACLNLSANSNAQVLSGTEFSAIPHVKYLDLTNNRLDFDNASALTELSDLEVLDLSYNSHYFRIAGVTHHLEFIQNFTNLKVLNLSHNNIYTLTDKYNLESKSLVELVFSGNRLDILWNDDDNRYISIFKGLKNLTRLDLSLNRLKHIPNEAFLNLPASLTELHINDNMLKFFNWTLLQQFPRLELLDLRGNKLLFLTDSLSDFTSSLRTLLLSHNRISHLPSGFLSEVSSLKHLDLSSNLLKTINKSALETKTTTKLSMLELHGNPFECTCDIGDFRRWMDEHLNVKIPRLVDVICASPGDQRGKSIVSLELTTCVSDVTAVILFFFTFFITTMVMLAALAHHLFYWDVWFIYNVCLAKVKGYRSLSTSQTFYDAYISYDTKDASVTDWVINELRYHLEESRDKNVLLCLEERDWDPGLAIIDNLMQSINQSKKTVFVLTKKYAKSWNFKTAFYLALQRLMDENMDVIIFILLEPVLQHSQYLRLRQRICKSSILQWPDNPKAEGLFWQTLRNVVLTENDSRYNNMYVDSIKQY
- measurement protocol: TLR8 inhibition reporter assay (HEK-Blue SEAP);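 also: SEAP driven by IFN-β minimal promoter with five NF-κB and AP-1 sites, compounds tested 0.05 nM to 50 µM, 22 h incubation, inhibition relative to agonist plus DMSO wells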
- assay setup: read-out: TLR8 IC50; HEK-Blue cells overexpressing human TLR8, R848 15.9 μM stimulation, SEAP reporter
// returns pIC50 (minus log10 of molar concentration), number only

Consider the worked cases shown below.
| molecule | target of assay | pIC50 |
| --- | --- | --- |
| COc1cc(-c2[nH]c3cnc(C4CCN(C5COC5)CC4)cc3c2C(C)C)cn2ncnc12 | UniProt:Q9NR97 | 7.80 |
| COc1cc(-c2[nH]c3cnc(C4CCNCC4)c(C)c3c2C(C)C)cn2ncnc12 | UniProt:Q9NR97 | 7.05 |

Recorded result, Cc1cc(-c2[nH]c3cnc(C4CCC(NC5CCOCC5)CC4)c(F)c3c2C(C)C)cn2ncnc12 (centres unmarked) [Example 110] , pIC50: 8.89

Recorded result, CCN(C)C1CCC(c2ncc3[nH]c(-c4cn5ncnc5c(C)c4C)c(C(C)C)c3c2F)CC1 (centres unmarked) [Example 135] , pIC50: 9.32

Recorded result, Cc1cc(-c2[nH]c3cnc(C4CCC(N5CC6(COC6)C5)CC4)c(F)c3c2C(C)C)cn2ncnc12 (centres unmarked) [Example 133] , pIC50: 8.92

Recorded result, COc1cc(-c2[nH]c3cnc(C4CCC(NC5COC5)CC4)cc3c2C(C)C)cn2ncnc12 (centres unmarked) [Example 308] , pIC50: 7.60

Recorded result, COc1cc(-c2[nH]c3cnc(C4CCC(N5CC6(COC6)C5)CC4)c(F)c3c2C(C)C)cn2ncnc12 (centres unmarked) , pIC50: 8.34

Recorded result, COc1cc(-c2[nH]c3cnc(C4CCC(N5CC6(COC6)C5)CC4)cc3c2C(C)C)cn2ncnc12 (centres unmarked) , pIC50: 7.31

###

- target of assay: human TLR9 (Homo sapiens (Human), UniProt Q9NR96)
- Sequence (Q9NR96 26-1032): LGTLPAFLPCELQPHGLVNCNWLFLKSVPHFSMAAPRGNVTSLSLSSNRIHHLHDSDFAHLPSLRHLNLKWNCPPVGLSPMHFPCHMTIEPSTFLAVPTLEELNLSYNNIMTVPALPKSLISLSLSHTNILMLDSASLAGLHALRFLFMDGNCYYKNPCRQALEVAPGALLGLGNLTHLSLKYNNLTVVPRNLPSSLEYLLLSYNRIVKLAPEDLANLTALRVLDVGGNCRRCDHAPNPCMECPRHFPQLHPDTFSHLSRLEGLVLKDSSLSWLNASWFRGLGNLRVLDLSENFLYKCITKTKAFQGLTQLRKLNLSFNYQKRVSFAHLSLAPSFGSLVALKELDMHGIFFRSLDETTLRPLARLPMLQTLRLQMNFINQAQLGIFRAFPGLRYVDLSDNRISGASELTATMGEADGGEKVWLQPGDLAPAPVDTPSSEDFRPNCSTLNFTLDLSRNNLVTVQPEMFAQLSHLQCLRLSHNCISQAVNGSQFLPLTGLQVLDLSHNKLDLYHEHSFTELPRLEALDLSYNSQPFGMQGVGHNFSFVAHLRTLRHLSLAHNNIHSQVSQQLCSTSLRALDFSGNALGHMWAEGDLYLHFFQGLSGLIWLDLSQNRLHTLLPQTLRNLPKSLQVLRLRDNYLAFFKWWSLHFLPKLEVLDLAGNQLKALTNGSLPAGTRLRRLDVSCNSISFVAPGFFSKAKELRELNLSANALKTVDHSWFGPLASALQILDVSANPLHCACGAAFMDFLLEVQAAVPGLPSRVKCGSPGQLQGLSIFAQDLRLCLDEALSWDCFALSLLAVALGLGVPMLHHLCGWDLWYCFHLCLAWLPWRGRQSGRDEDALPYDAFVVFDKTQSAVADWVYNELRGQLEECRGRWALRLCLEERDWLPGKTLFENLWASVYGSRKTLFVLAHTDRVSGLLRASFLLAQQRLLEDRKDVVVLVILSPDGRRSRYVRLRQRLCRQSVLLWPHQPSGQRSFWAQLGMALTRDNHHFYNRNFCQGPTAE
- measurement protocol: TLR9 inhibition reporter assay (HEK-Blue SEAP);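 also: SEAP driven by IFN-β minimal promoter carrying five NF-κB and AP-1 sites, 22 h at 37 °C, compounds 0.05 nM–50 µM, inhibition scaled between agonist-plus-DMSO and reference-inhibitor wells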
- assay setup: read-out: TLR9 IC50; HEK-Blue cells overexpressing human TLR9, ODN2006 5 nM stimulation, SEAP reporter
Mark each entry satisfied if its IC50 sits below 2 µM, and not satisfied for all others.

Worked set:
| compound | category label |
| --- | --- |
| CCN(C)C1CCC(c2ncc3[nH]c(-c4cc(OC)c5ncnn5c4)c(C(C)C)c3c2C)CC1 (stereo not drawn) [Example 268] | satisfied |
| COc1cc(-c2[nH]c3cnc(C4CCC(NCC(C)(C)F)CC4)c(C)c3c2C(C)C)cn2ncnc12 (stereo not drawn) [Example 244] | satisfied |
| CNC(=O)CN1CCC(c2cc3c(C(C)C)c(-c4cc(C)c5ncnn5c4)[nH]c3cn2)CC1 | satisfied |
| Cc1cc(-c2[nH]c3cnc(C4CCC(NC5CCOCC5)CC4)c(F)c3c2C(C)C)cn2ncnc12 (stereo not drawn) [Example 110] | satisfied |
| COc1cc(-c2[nH]c3cnc(N4CCNCC4)cc3c2C(C)C)cn2ncnc12 | satisfied |

is_below(IC50, 2 µM) for Cc1c(N2CCC(N3CCC3)CC2)ncc2[nH]c(-c3cc(C)c4ncnn4c3)c(C(C)C)c12 ? satisfied

###

- target of assay: human TLR9 (Homo sapiens (Human))
- measurement protocol: TLR9 inhibition reporter assay (HEK-Blue SEAP)
- assay setup: read-out: TLR9 IC50; HEK-Blue cells overexpressing human TLR9, ODN2006 5 nM stimulation, SEAP reporter
pIC50 values by entry
// returns pIC50 (minus log10 of molar concentration), number only

# lookup: COc1cc(-c2[nH]c3cnc(N4CCN(CC#N)CC4)c(F)c3c2C(C)C)cn2ncnc12 [Example 365] on human TLR9 (Homo sapiens (Human)), pIC50 = 5.83

###

log10(IC50) values by entry
- target of assay: human TLR9 (Homo sapiens (Human))
- measurement protocol: TLR9 inhibition reporter assay (HEK-Blue SEAP)
- assay setup: read-out: TLR9 IC50; HEK-Blue cells overexpressing human TLR9, ODN2006 5 nM stimulation, SEAP reporter
Please keep in mind that the values are log10 of IC50 expressed in µM.

| molecule | log10(IC50) |
| --- | --- |
| Cc1c(-c2[nH]c3cnc(C4CCC(NCC(C)(C)C)CC4)c(F)c3c2C(C)C)cn2ncnc2c1C (stereo not shown) [Example 200] | 0.94 |
| COc1cc(-c2[nH]c3cnc(C4CCC(N5CC6(COC6)C5)C4)cc3c2C(C)C)cn2ncnc12 (stereo not shown) [Example 118] | -0.53 |
| COc1cc(-c2[nH]c3cnc(C4CCC(NC5CCOCC5)CC4)c(F)c3c2C(C)C)cn2ncnc12 (stereo not shown) [Example 194] | -0.24 |
| COc1cc(-c2[nH]c3cnc(N4CCN(C(=O)CN(C)C)CC4)c(Cl)c3c2C(C)C)cn2ncnc12 | -0.30 |

# lookup: Cc1c(-c2[nH]c3cnc(C4CCC(NC[C@@H](F)C(C)(C)O)CC4)c(F)c3c2C(C)C)cn2ncnc2c1C (stereo partly shown) [Example 175] on human TLR9 (Homo sapiens (Human)), log10(IC50) = 0.90

# lookup: Cc1c(-c2[nH]c3cnc(N4CC5(CN(CC6(C)COC6)C5)C4)c(F)c3c2C(C)C)cn2ncnc2c1C on human TLR9 (Homo sapiens (Human)), log10(IC50) = 1.23

# lookup: COc1cc(-c2[nH]c3cnc(N4CC5(CN(CCS(C)(=O)=O)C5)C4)c(F)c3c2C(C)C)cn2ncnc12 on human TLR9 (Homo sapiens (Human)), log10(IC50) = 1.57

###

pIC50 values by entry
- target of assay: UniProt Q9NYK1
- measurement protocol: TLR7 inhibition reporter assay (HEK-Blue SEAP)
- assay setup: HEK-Blue cells overexpressing human TLR7, gardiquimod 7.5 μM stimulation
// returns pIC50 (minus log10 of molar concentration), number only

Consider the worked cases shown below.
| compound | pIC50 |
| --- | --- |
| Cc1cc(-c2[nH]c3cnc(C4CCC(N5CCC5)CC4)c(F)c3c2C(C)C)cn2ncnc12 (stereo not shown) [Example 109] | 9.21 |
| Cc1c(-c2[nH]c3cnc(N4CCN(C)C[C@H]4C)c(F)c3c2C(C)C)cn2ncnc2c1C | 10.30 |
| COc1cc(-c2[nH]c3cnc(C4CCC(NC(C)C)CC4)c(F)c3c2C(C)C)cn2ncnc12 (stereo not shown) [Example 73] | 9.06 |
| COc1cc(-c2[nH]c3cnc(C4CCC(N(CC#N)C5COC5)CC4)c(F)c3c2C(C)C)cn2ncnc12 (stereo not shown) [Example 115] | 8.85 |
| Cc1c(-c2[nH]c3cnc(N4CC5(CN(C(=O)CN6CCOCC6)C5)C4)c(F)c3c2C(C)C)cn2ncnc2c1C | 6.39 |
| COc1cc(-c2[nH]c3cnc(C4CCN(C(=O)CN(C)C)CC4)c(F)c3c2C(C)C)cn2ncnc12 | 8.48 |

Recorded result, COc1cc(-c2[nH]c3cnc(C4CCC(NCC(C)(C)OC)C4)cc3c2C(C)C)cn2ncnc12 (stereo not shown) [Example 211] , pIC50: 7.39
